For each of the compounds below, state its log10(Kb).
Target Of Assay: α1A-adrenoceptor (prostate) (Rattus norvegicus, UniProt P43140)
Construct: Aorta, prostate and spleen tissues were isolated from urethane anaesthetized (1.5 gm/kg) male wistar rats; from tissue; host or cells: isolated prostate of male Wistar rats
Sequence (P43140 1-466): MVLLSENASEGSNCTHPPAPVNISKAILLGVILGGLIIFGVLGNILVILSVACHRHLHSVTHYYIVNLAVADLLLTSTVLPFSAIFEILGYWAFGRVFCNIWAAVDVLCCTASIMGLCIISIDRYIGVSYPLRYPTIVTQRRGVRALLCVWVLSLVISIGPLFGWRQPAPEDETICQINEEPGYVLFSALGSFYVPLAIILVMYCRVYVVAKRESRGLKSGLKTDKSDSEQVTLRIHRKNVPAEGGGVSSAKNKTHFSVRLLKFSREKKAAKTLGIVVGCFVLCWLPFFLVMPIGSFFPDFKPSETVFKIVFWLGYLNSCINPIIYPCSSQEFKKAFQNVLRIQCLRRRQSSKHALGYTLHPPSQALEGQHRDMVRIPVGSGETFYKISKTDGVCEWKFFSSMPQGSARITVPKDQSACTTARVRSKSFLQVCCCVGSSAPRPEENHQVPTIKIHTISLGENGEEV
Experiment Notes: In vitro functional assay, phenylephrine-induced contraction of isolated prostate
Type: cell-based
Particulars: rat prostate, phenylephrine; read-out: In Vitro Functional Assay (pKB) α1A (converted)
Parameter value (number): base-10 log of Kb in nM.

Please review the following examples before continuing.
COc1ccccc1N1CCN(CCCN2C(=O)CCC2=O)CC1: 0.30
COc1ccccc1N1CCN(CCN2C(=O)CCC2=O)CC1: 2.10
O=C1CCCC(=O)N1CCCN1CCN(c2ccc(F)cc2)CC1: 0.60
Cc1ccc(N2CCN(CCCN3C(=O)CCCC3=O)CC2)cc1C: 2.50
O=C1CCC(=O)N1CCCN1CCN(c2ncccn2)CC1: 4.30
Cc1ccc(N2CCN(CCCN3C(=O)CCC3=O)CC2)cc1C: 2.60
COc1ccccc1N1CCN(CCCCN2C(=O)CCC2=O)CC1: 0.00
O=C1CCC(=O)N1CCCN1CCN(c2cccc(Cl)c2)CC1: 3.70

Dear reader, for each entry below, please note its log10(Kb).
1. O=C1CCCC(=O)N1CCCN1CCN(c2ccccn2)CC1
2. O=C1CCCC(=O)N1CCCN1CCN(c2ccc(Cl)cc2)CC1
3. Cc1ccccc1N1CCN(CCCN2C(=O)CCCC2=O)CC1
4. COc1ccccc1N1CCN(CCCN2C(=O)CCCC2=O)CC1
5. O=C1CCCC(=O)N1CCCN1CCN(c2cccc(Cl)c2)CC1
6. O=C1CCCC(=O)N1CCCN1CCN(c2ncccn2)CC1
7. O=C1CCCC(=O)N1CCCN1CCN(c2cccc(C(F)(F)F)c2)CC1

// result
2.60
2.30
0.80
0.40
1.50
2.60
2.50
